Experiment: Pharmacokinetic (PK) analysis in rats
Format: in vivo, Sprague Dawley (SD) rats
Conditions: Sprague-Dawley, rat, plasma, po; SD rats, single intragastric administration, 5 mg/kg; read-out: Mean Residence Time MRT
Measured MRT, listed per entry for reference.
I only need the number, in h, no unit after it.

COC1CCN(c2cc(NC(=O)N3CCCc4cc(CN5CCOCC5=O)c(C=O)nc43)ncc2C#N)C1 (stereo not drawn)
3.07
CO[C@@H]1CCCC1Oc1cc(NC(=O)N2CCCc3cc(CN4CCOCC4=O)c(C=O)nc32)ncc1C#N (stereo partly drawn)
2.96

Provide one value: measured MRT of CO[C@H]1CCC1Oc1cc(NC(=O)N2CCCc3cc(CN4CCOCC4=O)c(C=O)nc32)ncc1C#N (stereo partly drawn)
2.98

====

Experiment: Pharmacokinetic (PK) analysis in rats
Format: in vivo, Sprague Dawley (SD) rats
Conditions: SD rats, single intragastric administration, 5 mg/kg; (sampling in hours)
quantity kind: Peak Time tmax (h)
I only need the number, in h, no unit after it.

Answered cases to consult:
CO[C@H]1COCC1Nc1cc(NC(=O)N2CCCc3cc(CN4C(=O)OCC4C)c(C=O)nc32)ncc1C#N (stereo partly drawn)
4
N#Cc1cnc(NC(=O)N2CCCc3cc(CN4CCOCC4=O)c(C=O)nc32)cc1S[C@H]1CCOC1
4

Okay, next one:
Provide one value: measured Peak Time tmax of `COCCSc1cc(NC(=O)N2CCCc3cc(CN4CCOCC4=O)c(C=O)nc32)ncc1C#N`
2

====

Assay: Pharmacokinetic (PK) analysis in rats
Format: in vivo, Sprague Dawley (SD) rats
Details: Sprague-Dawley, rat, plasma, po; SD rats, single intragastric administration, 5 mg/kg; read-out: Mean Residence Time MRT
Threshold check on MRT: at or above 3 h gives YES, strictly below gives NO.

Some entries whose results are on file:
CO[C@@H]1CCC[C@H]1Nc1cc(NC(=O)N2CCCc3cc(CN4CCOCC4=O)c(C=O)nc32)ncc1C#N [Example 60]
NO
CO[C@H]1CCN(c2cc(NC(=O)N3CCCc4cc(CN5CCN(C)CC5=O)c(C=O)nc43)ncc2C#N)C1 [Example 63]
NO
COC[C@@H](C)Oc1cc(NC(=O)N2CCCc3cc(CN4C(=O)OCC45CC5)c(C=O)nc32)ncc1C#N [Example 42]
NO

In plain terms: is recorded MRT at least 3 h for CONc1cc(NC(=O)N2CCCc3cc(CN4CCOCC4=O)c(C=O)nc32)ncc1C#N [Example 54] ?
YES

In plain terms: is recorded MRT at least 3 h for CO[C@H]1CCC[C@@H]1Nc1cc(NC(=O)N2CCCc3cc(CN4CCOCC4=O)c(C=O)nc32)ncc1C#N [Example 59] ?
NO

In plain terms: is recorded MRT at least 3 h for COCCSc1cc(NC(=O)N2CCCc3cc(CN4CCOCC4=O)c(C=O)nc32)ncc1C#N [Example 13] ?
NO

====

Experiment: Pharmacokinetic (PK) analysis in rats
Format: in vivo, Sprague Dawley (SD) rats
Conditions: Sprague-Dawley, rat, plasma, po; SD rats, single intragastric administration, 5 mg/kg; read-out: Area Under Curve AUC0-∞
Threshold check on AUC(0-inf): at or above 5 µg·h/mL gives Yes, strictly below gives No.

COCCNc1cc(NC(=O)N2CCCc3cc(CN4CCCOCC4=O)c(C=O)nc32)ncc1C#N
Yes
CO[C@H]1COCC1Oc1cc(NC(=O)N2CCCc3cc(CN4CCOCC4=O)c(C=O)nc32)ncc1C#N (stereo partly drawn)
No

In plain terms: is recorded AUC(0-inf) at least 5 µg·h/mL for `CO[C@H]1CCC[C@@H]1Nc1cc(NC(=O)N2CCCc3cc(CN4CCOCC4=O)c(C=O)nc32)ncc1C#N` ?
No

In plain terms: is recorded AUC(0-inf) at least 5 µg·h/mL for `CO[C@@H]1CCN(c2cc(NC(=O)N3CCCc4cc(CN5C(=O)OC[C@@H]5C)c(C=O)nc43)ncc2C#N)C1` ?
No

In plain terms: is recorded AUC(0-inf) at least 5 µg·h/mL for `N#Cc1cnc(NC(=O)N2CCCc3cc(CN4CCOCC4=O)c(C=O)nc32)cc1S[C@@H]1CCOC1` ?
Yes

In plain terms: is recorded AUC(0-inf) at least 5 µg·h/mL for `CO[C@H]1CCN(c2cc(NC(=O)N3CCCc4cc(CN5CCN(C)CC5=O)c(C=O)nc43)ncc2C#N)C1` ?
No

In plain terms: is recorded AUC(0-inf) at least 5 µg·h/mL for `CO[C@H]1CCN(c2cc(NC(=O)N3CCCc4cc(CN5CCOC5=O)c(C=O)nc43)ncc2C#N)C1` ?
No

In plain terms: is recorded AUC(0-inf) at least 5 µg·h/mL for `COC[C@@H](C)Oc1cc(NC(=O)N2CCCc3cc(CN4C(=O)OCC45CC5)c(C=O)nc32)ncc1C#N` ?
Yes

====

Test: Pharmacokinetic (PK) analysis in rats
Format: in vivo, Sprague Dawley (SD) rats
Settings: Sprague-Dawley, rat, plasma, po; SD rats, single intragastric administration, 5 mg/kg; read-out: Mean Residence Time MRT
quantity kind: MRT (h)
I only need the number, in h, no unit after it.

Answered cases to consult:
CO[C@@H]1CCC1Oc1cc(NC(=O)N2CCCc3cc(CN4CCOCC4=O)c(C=O)nc32)ncc1C#N (stereo partly shown)
2.96
CO[C@@H]1CCCC1Nc1cc(NC(=O)N2CCCc3cc(CN4CCOCC4=O)c(C=O)nc32)ncc1C#N (stereo partly shown)
1.1
COCCNc1cc(NC(=O)N2CCCc3cc(CN4CCN(C5CC5)CC4=O)c(C=O)nc32)ncc1C#N
3.72
CO[C@H]1COCC1Nc1cc(NC(=O)N2CCCc3cc(CN4C(=O)OCC4C)c(C=O)nc32)ncc1C#N (stereo partly shown)
6.24
COCC1(Nc2cc(NC(=O)N3CCCc4cc(CN5CCOCC5=O)c(C=O)nc43)ncc2C#N)CC1
2.68

Provide one value: measured MRT of `COc1ccccc1Nc1cc(NC(=O)N2CCCc3cc(CN4CCOCC4=O)c(C=O)nc32)ncc1C#N`
3.74

Provide one value: measured MRT of `CO[C@@H]1CCN(c2cc(NC(=O)N3CCCc4cc(CN5CCOC5=O)c(C=O)nc43)ncc2C#N)C1`
3.12
